Source of measurements: patent US20260242735A1

Reported Mean % WT Binding values are given for each entry in this list.
biological target: human CD33 G64A (human, UniProt P20138 18-364); assay: alanine scan, flow cytometry;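 also: HEK293-T cells transiently expressing single-residue alanine mutants of CD33 (alanine swapped to serine), antibody binding read by fluorescence in duplicate, background-subtracted, expressed relative to wild-type CD33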
Sequence (P20138 18-364 G64A limits assumed): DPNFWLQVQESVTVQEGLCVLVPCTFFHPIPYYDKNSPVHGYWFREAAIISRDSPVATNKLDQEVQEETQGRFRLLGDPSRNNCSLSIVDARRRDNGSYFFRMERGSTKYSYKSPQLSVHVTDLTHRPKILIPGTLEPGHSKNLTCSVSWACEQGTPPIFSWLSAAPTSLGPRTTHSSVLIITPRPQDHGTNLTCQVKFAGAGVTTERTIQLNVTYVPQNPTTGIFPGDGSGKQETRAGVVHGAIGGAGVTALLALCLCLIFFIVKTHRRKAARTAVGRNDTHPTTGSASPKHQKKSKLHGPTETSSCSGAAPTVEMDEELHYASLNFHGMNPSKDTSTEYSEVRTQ

Binder: Refmab #2 (antibody, V domains shown, Full-length format is human IgG1 Fc silent (PG-LALA); The alanine scan used IgG or Fab) VH: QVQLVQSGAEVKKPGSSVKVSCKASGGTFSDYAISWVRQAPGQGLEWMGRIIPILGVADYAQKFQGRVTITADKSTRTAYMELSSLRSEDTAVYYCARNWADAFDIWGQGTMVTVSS VL: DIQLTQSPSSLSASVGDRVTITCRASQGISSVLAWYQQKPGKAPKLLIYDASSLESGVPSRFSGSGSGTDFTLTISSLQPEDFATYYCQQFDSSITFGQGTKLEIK
Mean % WT Binding: 114 % WT
//
Binder: Refmab #1 (antibody, V domains shown, Full-length format is human IgG1 (Absolute Antibody Ab00283-10.0); The alanine scan used IgG or Fab; also called hP67.6) VH: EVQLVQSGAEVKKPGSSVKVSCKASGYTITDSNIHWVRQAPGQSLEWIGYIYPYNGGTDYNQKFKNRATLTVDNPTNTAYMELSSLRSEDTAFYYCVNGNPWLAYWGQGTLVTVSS VL: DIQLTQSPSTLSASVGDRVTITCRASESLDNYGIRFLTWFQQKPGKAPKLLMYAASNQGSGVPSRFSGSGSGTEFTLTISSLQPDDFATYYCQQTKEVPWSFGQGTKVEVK
Mean % WT Binding: 90.6 % WT
//
Binder: Refmab #4 (antibody, V domains shown, Full-length format is human IgG1 Fc silent (PG-LALA); The alanine scan used IgG or Fab) VH: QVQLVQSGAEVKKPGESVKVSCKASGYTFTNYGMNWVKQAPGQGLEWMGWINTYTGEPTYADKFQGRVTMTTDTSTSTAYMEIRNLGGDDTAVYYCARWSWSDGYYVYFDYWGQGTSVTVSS VL: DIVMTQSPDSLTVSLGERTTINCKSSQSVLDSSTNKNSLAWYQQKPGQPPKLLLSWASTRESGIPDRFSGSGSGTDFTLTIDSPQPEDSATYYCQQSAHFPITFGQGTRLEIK
Mean % WT Binding: 93.9 % WT
//
Binder: Refmab #3 (antibody, V domains shown, Full-length format is human IgG1 Fc silent (PG-LALA); The alanine scan used IgG or Fab) VH: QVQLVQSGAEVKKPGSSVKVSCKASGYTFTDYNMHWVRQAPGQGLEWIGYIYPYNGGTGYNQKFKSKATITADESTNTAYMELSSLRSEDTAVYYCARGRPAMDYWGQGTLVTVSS VL: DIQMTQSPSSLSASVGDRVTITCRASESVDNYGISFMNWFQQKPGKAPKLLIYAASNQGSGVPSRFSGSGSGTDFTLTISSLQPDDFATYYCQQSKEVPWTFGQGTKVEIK
Mean % WT Binding: 96.6 % WT
